Item-by-item account of CC50 at 72 h
Test: Mammalian cytotoxicity, MTT, HepG2
Format: cell-based, human
Conditions: human, HepG2 hepatocellular carcinoma cells
Where a SMILES comes first, the peptide text is derived from it. [ ]: non-standard residue; d: D form. Gly(N(CH2)2(3-indolyl)) = O=C(O)CNCCc1c[nH]c2ccccc12; N(tridecyl)Gly = CCCCCCCCCCCCCNCC(=O)O; Gly(N-2-aminoethyl) = NCCNCC(=O)O; Gly(N-cHex) = O=C(O)CNC1CCCCC1; Nlys = NCCCCNCC(=O)O
Answer format: numeric, mg/L implied, no suffix.

Here are 2 compounds together with their reported answers.
[[record]]
compound = "CCCCCCCCCCCCCNCC(=O)N(CCc1c[nH]c2ccccc12)CC(=O)N(CCCCN)CC(=O)N(CCN)CC(=O)N(CCc1c[nH]c2ccccc12)CC(N)=O [Compound 23] (H-[N(tridecyl)Gly][Gly(N(CH2)2(3-indolyl))][Nlys][Gly(N-2-aminoethyl)][Gly(N(CH2)2(3-indolyl))]-NH2)"
endpoint_label = "CC50 at 72 h"
measurement_unit = "mg/L"
readout_number = 85

[[record]]
compound = "CCCCCCCCCCCCCNCC(=O)N(CC(=O)N(CCCCN)CC(=O)N(CCCCN)CC(=O)N(CC(N)=O)C1CCCCC1)C1CCCCC1 [Compound 2] (H-[N(tridecyl)Gly][Gly(N-cHex)][Nlys][Nlys][Gly(N-cHex)]-NH2)"
endpoint_label = "CC50 at 72 h"
measurement_unit = "mg/L"
readout_number = 165


Here is the next item to consider.
Quickly give me recorded CC50 at 72 h for "CCCCCCCCCCCCCNCC(=O)N(CC(=O)N(CCCCN)CC(=O)N(CCN)CC(=O)N(CC(N)=O)c1cccc2ccccc12)c1cccc2ccccc12"
118

----------
Test: Percent acetonitrile at elution during RP-HPLC purification (hydrophobicity)
Type: physicochemical
Conditions: percent acetonitrile at the time of elution from HPLC
Where a SMILES comes first, the peptide text is derived from it. [ ]: non-standard residue; d: D form. N(tridecyl)Gly = CCCCCCCCCCCCCNCC(=O)O; Gly(N-2-aminoethyl) = NCCNCC(=O)O; Gly(N-cHex) = O=C(O)CNC1CCCCC1; NPhGly = O=C(O)CNc1ccccc1; Nlys = NCCCCNCC(=O)O
Reported % ACN by item:
For clarity, give the value followed by its unit.

[[record]]
molecule = "CCCCCCCCCCCCCNCC(=O)N(CCCCN)CC(=O)N(CC(=O)N(CC(=O)N(CCN)CC(N)=O)C1CCCCC1)C1CCCCC1 [Compound 3] (H-[N(tridecyl)Gly][Nlys][Gly(N-cHex)][Gly(N-cHex)][Gly(N-2-aminoethyl)]-NH2)"
result = "69.3%"


Moving on to the next molecule.
Query % ACN for CCCCCCCCCCCCCNCC(=O)N(CC(=O)N(CCCCN)CC(=O)N(CCN)CC(=O)N(CC(N)=O)c1ccccc1)c1ccccc1 [Compound 14] (H-[N(tridecyl)Gly][NPhGly][Nlys][Gly(N-2-aminoethyl)][NPhGly]-NH2)
67.7%

----------
# hRBC HC10 annotations
Tested on: human red blood cells (hRBC)
Assay: Hemolytic activity against human red blood cells
Format: cell-based
Settings: Example 2; same donor sample of hRBCs
Where a SMILES comes first, the peptide text is derived from it. [ ]: non-standard residue; d: D form. N(tridecyl)Gly = CCCCCCCCCCCCCNCC(=O)O; N(4-F-Bzl)Gly = O=C(O)CNCc1ccc(F)cc1; Gly(N-2-aminoethyl) = NCCNCC(=O)O; Nspe = C[C@H](NCC(=O)O)c1ccccc1; Gly(N-cHex) = O=C(O)CNC1CCCCC1; Nleu = CC(C)CNCC(=O)O; Nlys = NCCCCNCC(=O)O
Kindly answer with a numeric value in µg/mL, unit omitted.

[[record]]
compound = "CCCCCCCCCCCCCNCC(=O)N(CC(=O)N(CCCCN)CC(=O)N(CCN)CC(=O)N(CC(N)=O)Cc1ccc(F)cc1)Cc1ccc(F)cc1 [Compound 17] (H-[N(tridecyl)Gly][N(4-F-Bzl)Gly][Nlys][Gly(N-2-aminoethyl)][N(4-F-Bzl)Gly]-NH2)"
test_target = "human red blood cells (hRBC)"
measurement_unit = "µg/mL"
readout_number = 59


Supply hRBC HC10 measured with human red blood cells (hRBC) for CCCCCCCCCCCCCNCC(=O)N(CC(=O)N(CCCCN)CC(=O)N(CCN)CC(=O)N(CC(N)=O)CC(C)C)CC(C)C [Compound 9] (H-[N(tridecyl)Gly][Nleu][Nlys][Gly(N-2-aminoethyl)][Nleu]-NH2) .
130

Provide the reported hRBC HC10 (system: human red blood cells (hRBC)) for CCCCCCCCCCCCCNCC(=O)N(CC(=O)N(CCCCN)CC(=O)N(CCN)CC(=O)N(CC(N)=O)C1CCCCC1)C1CCCCC1 [RMG8-8, Ntri-Ncha-Nlys-Nae-Ncha] (H-[N(tridecyl)Gly][Gly(N-cHex)][Nlys][Gly(N-2-aminoethyl)][Gly(N-cHex)]-NH2)
75

Report measured hRBC HC10 on human red blood cells (hRBC); entry: CCCCCCCCCCCCCNCC(=O)N(CC(=O)N(CCCCN)CC(=O)N(CCN)CC(=O)N(CC(N)=O)[C@@H](C)c1ccccc1)[C@@H](C)c1ccccc1 [Compound 16] (H-[N(tridecyl)Gly][Nspe][Nlys][Gly(N-2-aminoethyl)][Nspe]-NH2)
38
